Tested system: 3-hydroxy-3-methylglutaryl-coenzyme A reductase (Rattus norvegicus)
Observed property: IC50 (µM)
One number for each entry, in µM.

Return reported IC50; argument: `CCCCCCCCCCCCCCCC(O)(CC(=O)O)CC(=O)O`
50

----------
Tested system: 3-hydroxy-3-methylglutaryl-coenzyme A reductase (Rattus norvegicus)
Protocol summary: In vitro inhibition of rat liver HMG-CoA reductase at concentration of 10e-3 M
Everything with inhibition lower than 30% is class 0; everything else, including exactly 30%, is class 1.

Reference set, count: 4
- CCCCCCCCCCCCCCCC(O)(CC(=O)OC)CC(=O)OC: class 0
- CCCCCCCCCCC(O)(CC(=O)OCC)CC(=O)OCC: class 0
- CCC(O)(CC(=O)O)CC(=O)O: class 0
- CCCCCCCCCCCCCCCC1(OC(C)=O)CC(=O)OC(=O)C1: class 0

// switching to the query compound
Exam item: decide whether the reported inhibition for `CCOC(=O)CC(C)(O)CC(=O)OCC` is at least 30%.
class 0

----------
Tested system: 3-hydroxy-3-methylglutaryl-coenzyme A reductase (Rattus norvegicus) (UniProt P51639)
Sequence (whole entry): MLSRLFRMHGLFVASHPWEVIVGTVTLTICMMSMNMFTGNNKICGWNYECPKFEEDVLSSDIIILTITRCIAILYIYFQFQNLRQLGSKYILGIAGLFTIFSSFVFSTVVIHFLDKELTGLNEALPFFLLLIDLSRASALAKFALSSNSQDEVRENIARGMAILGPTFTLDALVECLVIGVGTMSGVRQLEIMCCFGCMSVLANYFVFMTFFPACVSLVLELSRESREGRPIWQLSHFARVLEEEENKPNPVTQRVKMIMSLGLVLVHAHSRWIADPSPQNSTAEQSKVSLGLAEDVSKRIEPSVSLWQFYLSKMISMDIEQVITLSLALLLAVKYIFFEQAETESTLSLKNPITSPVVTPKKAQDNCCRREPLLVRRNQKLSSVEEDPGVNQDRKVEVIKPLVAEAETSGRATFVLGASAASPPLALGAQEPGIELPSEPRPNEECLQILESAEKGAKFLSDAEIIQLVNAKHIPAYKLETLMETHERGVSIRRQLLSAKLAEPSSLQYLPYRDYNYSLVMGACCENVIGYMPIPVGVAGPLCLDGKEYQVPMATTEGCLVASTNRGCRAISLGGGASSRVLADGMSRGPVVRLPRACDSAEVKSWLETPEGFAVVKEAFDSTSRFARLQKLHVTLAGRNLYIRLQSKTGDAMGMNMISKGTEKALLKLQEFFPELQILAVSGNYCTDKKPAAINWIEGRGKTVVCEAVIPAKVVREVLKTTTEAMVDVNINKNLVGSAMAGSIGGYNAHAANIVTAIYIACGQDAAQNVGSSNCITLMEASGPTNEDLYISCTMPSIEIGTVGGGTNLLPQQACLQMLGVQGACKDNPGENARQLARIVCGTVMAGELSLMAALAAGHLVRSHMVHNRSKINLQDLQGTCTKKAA
Protocol summary: In vitro inhibition of rat liver HMG-CoA reductase at concentration of 10e-3 M
Consider the following compounds; for each one, report its inhibition.
One number for each entry, in %.

* CC1(O)CC(=O)OC(=O)C1 | 0
* COC(=O)CC(C)(O)CC(N)=O (configuration not stated) | 0

Dear colleague, could you please provide inhibition for the compounds listed below?
1. CCCCCCCCCCCCCCC/C(=C\C(=O)O)CC(=O)O
2. CCCCCCC(O)(CC(=O)O)CC(=O)O
3. CCCCCCCCCCCCCCCC(O)(CC(=O)O)CC(=O)OCCN(C)C (configuration not stated)

0
5
0

Dear colleague, could you please provide inhibition for the compounds listed below?
1. CC(C)C(O)(CC(=O)O)CC(=O)O
2. CC1(O)CC(=O)NC(=O)C1

1. 10
2. 50

----------
Consider the following molecules; for each one, report its inhibition.
Tested system: 3-hydroxy-3-methylglutaryl-coenzyme A reductase (Rattus norvegicus) (UniProt P51639)
Protocol summary: In vitro inhibition of rat liver HMG-CoA reductase at concentration of 10e-3 M
Kindly format the answer as number then unit.

Dear colleague, could you please provide inhibition for the molecules listed below?
1. CCCCCCCCCCC(O)(CCO)CCO
2. CCCC(O)(CC(=O)O)CC(=O)O

["0%", "37%"]

Dear colleague, could you please provide inhibition for the molecules listed below?
1. CCCCCCCCCCCCCCCC(O)(CC(=O)O)CC(=O)O
2. CCCCCCCCCCCCCCCCCCCC(O)(CC(=O)O)CC(=O)O
3. CCCCCCCCCCCCCCCC(O)(CCO)CCO
4. CCCCCCCCCCC1(O)CCOC(=O)C1 (configuration not stated)

1: 99%; 2: 86%; 3: 0%; 4: 57%

Return reported inhibition; argument: `CC(O)(CC(=O)O)CC(=O)O`
0%
